# target_entity: purified E. coli cyt bd-I oxidase (Escherichia coli, UniProt P0ABJ9)
# Construct: made in house; host or cells: E. coli C43(DE3) Δbo3 with plasmid pet17b-cydABX-StrepII
# Sequence (P56100 whole entry): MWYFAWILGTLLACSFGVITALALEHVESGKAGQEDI
# Sequence (P0ABJ9 whole entry): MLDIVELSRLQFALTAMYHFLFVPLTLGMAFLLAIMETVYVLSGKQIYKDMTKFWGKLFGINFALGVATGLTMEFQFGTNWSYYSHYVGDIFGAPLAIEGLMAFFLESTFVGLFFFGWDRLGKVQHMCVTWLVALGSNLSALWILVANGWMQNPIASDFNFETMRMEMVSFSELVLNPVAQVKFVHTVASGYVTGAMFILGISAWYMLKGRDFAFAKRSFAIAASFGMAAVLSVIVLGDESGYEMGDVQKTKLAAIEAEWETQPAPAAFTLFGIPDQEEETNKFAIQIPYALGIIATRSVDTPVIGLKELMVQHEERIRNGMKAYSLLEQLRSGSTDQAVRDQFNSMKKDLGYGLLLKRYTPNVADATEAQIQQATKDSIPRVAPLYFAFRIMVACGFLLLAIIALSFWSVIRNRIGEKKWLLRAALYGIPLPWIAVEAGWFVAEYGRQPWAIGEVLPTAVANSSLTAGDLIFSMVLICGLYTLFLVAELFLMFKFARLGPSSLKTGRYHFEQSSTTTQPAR
# Sequence (P0ABK2 whole entry, further chain): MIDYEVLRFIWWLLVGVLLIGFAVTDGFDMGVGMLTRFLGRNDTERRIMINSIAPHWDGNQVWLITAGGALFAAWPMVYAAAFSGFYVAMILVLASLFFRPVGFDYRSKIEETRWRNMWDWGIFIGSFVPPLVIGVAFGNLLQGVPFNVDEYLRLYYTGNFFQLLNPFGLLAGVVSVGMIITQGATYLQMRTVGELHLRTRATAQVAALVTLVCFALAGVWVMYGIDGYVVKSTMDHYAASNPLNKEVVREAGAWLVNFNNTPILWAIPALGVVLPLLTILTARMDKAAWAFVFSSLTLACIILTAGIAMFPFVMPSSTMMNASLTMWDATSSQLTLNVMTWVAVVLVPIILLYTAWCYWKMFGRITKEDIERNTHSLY
# protocol_details: biochemical
# measurement_context: inhibitor 250 µM, 200 μM ubiquinone-1, 5 mM DTT, 30 nM enzyme, RT; mean of three ± SD; 100 % = EtOH; read-out: Residual activity for oxygen reduction, Cytochrome bd-I
test_readout: remaining activity at 250 µM (%)
A number alone suffices; assume %.

O=C1C(O)=C(C(c2nc3ccccc3s2)N2CCC[C@H]2C(=O)O)C(=O)c2ccccc21 (stereo partly drawn); 111
O=C1C(O)=C(Cc2ccncc2)C(=O)c2ccccc21; 110
O=C1C(O)=C(Cc2c[nH]c3ncccc23)C(=O)c2ccccc21; 106
O=C1C(O)=C(Cc2ccc3[nH]ncc3c2)C(=O)c2ccccc21; 117
CCCCCCCc1cc(O)c2ccccc2[n+]1[O-] [HQNO, 2‐heptyl‐4‐quinolinol 1‐oxide, reference compound]; 9.05

Now turn to the next compound.
Problem: What value of remaining activity at 250 µM has been reported for the following compound? CCCCCCCCCCCCCC1=C(O)C(=O)c2ccccc2C1=O [HNQ‐1, 2‐Hydroxy‐3‐tridecyl‐1,4‐naphthoquinone]
Solution: 70.2

----------
# target_entity: purified E. coli cyt bd-I oxidase (Escherichia coli, UniProt P0ABJ9)
# Construct: made in house; host or cells: E. coli C43(DE3) Δbo3 with plasmid pet17b-cydABX-StrepII
# protocol_details: biochemical
# measurement_context: HNQ 250 μM, 200 μM ubiquinone-1
test_readout: inhibitory effect on cyt bd-I oxidase

O=C1C(O)=C(Cc2ccncc2)C(=O)c2ccccc21 [HNQ‐3]; < 30%
O=C1C(O)=C(C(c2nc3ccccc3s2)N2CCC[C@H]2C(=O)O)C(=O)c2ccccc21 (some centres unmarked) [HNQ‐11]; < 30%
CCCCCCCCCCCCCC1=C(O)C(=O)c2ccccc2C1=O [HNQ‐1, 2‐Hydroxy‐3‐tridecyl‐1,4‐naphthoquinone]; 30%
CN(C)c1ccc(CC2=C(O)C(=O)c3ccccc3C2=O)cc1 [HNQ‐4]; < 30%

From here, focus on the item given below.
Problem: Record lookup: for purified E. coli cyt bd-I oxidase (Escherichia coli, UniProt P0ABJ9), what inhibitory effect on cyt bd-I oxidase belongs to O=C1C(O)=C(Cc2c[nH]c3ncccc23)C(=O)c2ccccc21 [HNQ‐8] ?
Solution: < 30%

----------
# target_entity: purified E. coli cyt bo3 oxidase (Escherichia coli)
# Construct: made in house; host or cells: E. coli strain GO195 with plasmid pIRHisA
# protocol_details: biochemical
# measurement_context: HNQ 250 μM, 200 μM ubiquinone-1; read-out: inhibition (reduction) of cyt bo3 activity
test_readout: inhibition at 250 µM

CCCCCCCCCCCCCC1=C(O)C(=O)c2ccccc2C1=O [HNQ‐1, 2‐Hydroxy‐3‐tridecyl‐1,4‐naphthoquinone]; > 50%

Problem: Recorded inhibition at 250 µM of `O=C1C(O)=C(Cc2ccc3c(c2)OCO3)C(=O)c2ccccc21` , please.
Solution: > 50%

Problem: Which inhibition at 250 µM is reported for this compound? `O=C1C(O)=C(Cc2ccccc2)C(=O)c2ccccc21`
Solution: > 50%

----------
Examples of molecules with documented remaining activity at 250 µM follow.
# target_entity: purified E. coli cyt bo3 oxidase (Escherichia coli, UniProt P0ABI8)
# Construct: made in house; host or cells: E. coli strain GO195 with plasmid pIRHisA
# Sequence (P0ABJ1 25-315): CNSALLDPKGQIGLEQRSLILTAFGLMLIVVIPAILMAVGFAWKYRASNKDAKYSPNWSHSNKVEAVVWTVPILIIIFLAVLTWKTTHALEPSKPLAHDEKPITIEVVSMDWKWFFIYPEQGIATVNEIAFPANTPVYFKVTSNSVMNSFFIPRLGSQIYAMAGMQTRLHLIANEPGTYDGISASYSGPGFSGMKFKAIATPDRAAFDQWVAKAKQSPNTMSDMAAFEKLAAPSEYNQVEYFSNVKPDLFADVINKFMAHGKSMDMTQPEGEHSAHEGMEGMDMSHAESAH
# Sequence (P0ABJ3 whole entry, further chain): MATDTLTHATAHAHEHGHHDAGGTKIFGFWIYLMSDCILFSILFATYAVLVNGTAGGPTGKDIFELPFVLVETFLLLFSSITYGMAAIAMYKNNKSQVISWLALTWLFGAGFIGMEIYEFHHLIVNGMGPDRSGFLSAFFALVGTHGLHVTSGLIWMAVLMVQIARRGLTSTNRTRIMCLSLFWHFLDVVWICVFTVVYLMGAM
# Sequence (P0ABI8 whole entry): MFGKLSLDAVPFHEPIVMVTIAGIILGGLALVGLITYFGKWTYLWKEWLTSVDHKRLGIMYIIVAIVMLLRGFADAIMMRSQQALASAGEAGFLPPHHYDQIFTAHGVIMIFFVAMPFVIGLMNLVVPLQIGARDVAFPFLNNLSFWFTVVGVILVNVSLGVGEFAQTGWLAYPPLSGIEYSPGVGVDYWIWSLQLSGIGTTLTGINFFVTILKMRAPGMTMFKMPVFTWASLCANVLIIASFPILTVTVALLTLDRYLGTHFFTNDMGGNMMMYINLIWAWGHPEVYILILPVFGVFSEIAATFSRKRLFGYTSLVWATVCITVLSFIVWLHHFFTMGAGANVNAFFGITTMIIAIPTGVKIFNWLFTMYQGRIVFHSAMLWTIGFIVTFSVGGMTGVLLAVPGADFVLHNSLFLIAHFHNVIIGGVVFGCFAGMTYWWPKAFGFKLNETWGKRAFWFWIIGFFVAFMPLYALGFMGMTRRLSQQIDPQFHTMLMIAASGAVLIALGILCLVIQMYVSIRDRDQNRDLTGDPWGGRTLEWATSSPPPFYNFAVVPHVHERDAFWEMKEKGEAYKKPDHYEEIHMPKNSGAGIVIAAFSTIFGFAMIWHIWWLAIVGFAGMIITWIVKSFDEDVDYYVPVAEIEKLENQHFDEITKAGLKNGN
# Sequence (P0ABJ6 whole entry, further chain): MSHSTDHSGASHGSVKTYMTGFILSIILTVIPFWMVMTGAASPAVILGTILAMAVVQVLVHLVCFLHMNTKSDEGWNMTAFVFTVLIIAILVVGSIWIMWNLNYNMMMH
# protocol_details: biochemical
# measurement_context: inhibitor 250 µM, 200 μM ubiquinone-1, 5 mM DTT, 30 nM enzyme, RT; mean of three ± SD; 100 % = EtOH; read-out: Residual activity for oxygen reduction, Cytochrome bo3
Write the number in % without appending the unit.

O=C1C(O)=C(C(c2nc3ccccc3s2)N2CCC[C@H]2C(=O)O)C(=O)c2ccccc21 (some centres unmarked); 115
O=C1C(O)=C(Cc2c[nH]c3ncccc23)C(=O)c2ccccc21; 101
COc1cc(CC2=C(O)C(=O)c3ccccc3C2=O)ccc1O; 49.5
O=C1C(O)=C(Cc2ccc3[nH]ncc3c2)C(=O)c2ccccc21; 59.9

Moving on to another molecule below.
Problem: Sample `O=C1C(O)=C(Cc2ccccc2)C(=O)c2ccccc21` — what was its remaining activity at 250 µM?
Solution: 21.8

Cited source for all entries: paper PMC7497249
